ASSAY_OVERVIEW: Fluorescence lifetime, time-correlated single photon counting (excitation 500 nm, detection 550 nm)
Format: physicochemical
ASSAY_CONDITIONS: solvent water; excited at 500 nm, detection at 550 nm
Experimental: FIG. 2 is a plot showing the fluorescence lifetimes of certain dyes according to the invention. Fluorescence lifetimes of a range of dyes were determined by a time-correlated single photon counting technique using an Edinburgh Instruments FL900 CDT Time-Resolved Fluorometer. Samples were excited at 500 nm using a hydrogen-filled flashlamp. Detection was at 550 nm.
Counter-ions that a name gives are not always drawn.
Lifetime vs 20 nsec: less than gives 1.0; not less than gives 0.0.

These solved cases illustrate the format of a correct answer.
COMPOUND	CLASSIFICATION
O=c1c2cc(S(=O)(=O)O)ccc2[nH]c2cc3c(=O)c4cc(S(=O)(=O)O)ccc4[nH]c3cc12 [2,9-Quinacridone disulphonic acid, (di-potassium salt)]	0.0
CCn1c2ccc(S(=O)(=O)O)cc2c(=O)c2cc3c(cc21)c(=O)c1cc(S(=O)(=O)O)ccc1n3CCCCCC(=O)O	0.0
CCOC(=O)CCCCCn1c2ccc(Br)cc2c(=O)c2cc3c(cc21)c(=O)c1cc(Br)ccc1n3CCCCCC(=O)OCC	1.0

Turning now to a further record.
Prompt line: Dear colleague, could you confirm whether Lifetime of `O=c1c2cc3[nH]c4c(S(=O)(=O)O)cc(S(=O)(=O)O)cc4c(=O)c3cc2[nH]c2c(S(=O)(=O)O)cc(S(=O)(=O)O)cc12` falls below 20 nsec? Thanks.
Response line: 0.0
